FYI, the data here is from paper PMC9352680.

Molecular target: T1, PUF4 RNA-binding domain (Saccharomyces cerevisiae, UniProt P25339 537-888)
T1 sequence: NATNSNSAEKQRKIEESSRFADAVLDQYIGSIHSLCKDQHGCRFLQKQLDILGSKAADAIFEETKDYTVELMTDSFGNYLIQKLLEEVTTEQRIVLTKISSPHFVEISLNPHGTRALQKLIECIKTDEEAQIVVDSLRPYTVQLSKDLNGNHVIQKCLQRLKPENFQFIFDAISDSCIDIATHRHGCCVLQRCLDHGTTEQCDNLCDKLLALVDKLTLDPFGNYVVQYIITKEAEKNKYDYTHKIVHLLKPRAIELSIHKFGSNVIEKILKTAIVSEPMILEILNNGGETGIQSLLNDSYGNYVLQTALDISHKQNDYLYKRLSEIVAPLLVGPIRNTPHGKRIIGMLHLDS
Test: Mg; RNA-MaP; 20 mM Na-HEPES pH 7.4, 30 mM KOAc, 0.75 mM MgCl2, 0.1% Tween-20, 5% glycerol, 0.1 mg/mL BSA, 2 mM DTT; 25 C; 0.0125-409.6 nM protein
Conditions: tags: N-His6-TEV cleaved; C-SNAP kept, Cy3B-labelled; label: tethered on chip by stalled RNA polymerase
Kd values by entry

{"columns": ["binder", "Kd (nM)"],
 "data": [
  ["ACAAACUUUAUAUUACAAAC (ssRNA) [Ib_S3_P3E.1_K3.1_C3.1_H3.1_[G2T]_A3.1_F3.1_[A8T]_T3.1]", 704],
  ["UCUCUUUGUAUCGUUGUCUCUU (ssRNA) [Ic_S1_P5E.1_K5.1_C5.1_H5.1_A5.1_[T6C]_[A7G]_F5.1_[A10G]_T5.1]", 315],
  ["Ic_S2_P5E.1_K5.1_C5.1_H5.1_A5.1_[T5C]_[T6C]_[A7T]_F5.1_[T9G]_[A10G]_T5.1 (ssRNA) RNA: UUUGAUUAAUAUGAUAUCGUUCUUUCUUGUACCUUGGUUCUUUCUCGAUAUCAUAUUAAUCUUU", 210],
  ["Ic_S2_P4E.1_K4.1_C4.1_H4.1_A4.1_[A6T]_F4.1_[T8G]_[A9C]_T4.1 (ssRNA) RNA: UUUGAUUAAUAUGAUAUCGUUCUUUCUUGUAUUUGCUUCUUUCUCGAUAUCAUAUUAAUCUUU", 195],
  ["UCUCUUCGUGUAUAUUAAGUCUCUU (ssRNA) [Id_ii_S1_P4E.2_K4.1_C4.2_[T-1G]_H4.1_A4.1_F4.1_T4.2_[G10A]_[T11G]]", 3.06],
  ["UCUCUUUGUAACAAGUCUCUU (ssRNA) [Ic_S1_P4E.1_K4.1_C4.1_H4.1_A4.1_[T5A]_[A6C]_[T7A]_F4.1_[T8A]_[A9G]_T4.1]", 1670]
]}
